Source: patent US12077503B2

- Test system: barnyardgrass (Echinochloa crus-galli)
- testSummary: Test A postemergence
- Assay type: in vivo
- setupConditions: Echinochloa crus-galli, post-emergence, 240 h, Postemergence, 500 g ai/ha; visual injury, 0 to 100 scale (0 no effect, 100 complete control), approx. 10 d; read-out: Plant response rating, Barnyardgrass
quantity: pest or weed control at 500 g/ha (%)
Give bare numbers, in %.

CN1C[C@H](c2ccc3c(c2)CCO3)[C@@H](C(=O)Nc2cccc(F)c2F)C1=O [Compound 1324]	90
CO[C@]1(C(=O)Nc2cccc(F)c2F)C(=O)N(C)C[C@@H]1c1ccc(C(F)(F)F)cc1 (racemic) [Compound 1334]	50
O=C1NCC(c2ccccc2)C1C(=O)Nc1ccccc1Oc1ccccc1 (centres unmarked) [Compound 1357]	0
C=CCOc1cccc(C2CN(C)C(=O)C2C(=O)Nc2ccccc2F)c1 (centres unmarked) [Compound 1329]	90

# evaluate next
query: What pest or weed control at 500 g/ha value was documented for this molecule, Cc1nc([C@H]2CN(C)C(=O)[C@@H]2C(=O)Nc2cccc(F)c2F)cs1 [Compound 1281] ?
result: 80

----------
- System: giant foxtail (Setaria faberi)
- testSummary: Test G Post-Emergence Protocol
- Assay type: in vivo
- setupConditions: Setaria faberi, post-emergence, 312 h, 250 g ai/ha, evaluated after 13 days, read-out: damage to plant, Foxtail, Giant (100=total damage to plant; 0=no damage to plant)
quantity: pest or weed control at 250 g/ha (%)
Give bare numbers, in %.

Consider the worked cases shown below.
CN1C[C@@H](c2ccc(C(F)(F)F)nc2)[C@H](C(=O)Nc2ccccc2F)C1=O (racemic)	70
CN1C[C@@H](c2ccc(C(F)(F)F)cc2)[C@H](C(=O)Nc2nccnc2Cl)C1=O (racemic)	0
CN1C[C@@H](c2ccc(C(F)(F)F)cc2)[C@H](C(=O)Nc2nnc(C(F)(F)F)s2)C1=O (racemic)	0
Cc1c(C#N)cccc1NC(=O)[C@H]1C(=O)N(C)C[C@@H]1c1ccc(C(F)(F)F)cc1 (racemic)	60
CN1C[C@H](c2ccc3occc3c2)[C@@H](C(=O)Nc2cccc(F)c2F)C1=O (racemic)	60

For every item below, please supply its pest or weed control at 250 g/ha.
1. CN1C[C@H](c2ccc3c(c2)CCO3)[C@@H](C(=O)Nc2cccc(F)c2F)C1=O (racemic)
2. CN1C[C@@H](c2ccc(C(F)(F)F)cc2)[C@H](C(=O)Nc2nccs2)C1=O (racemic)
3. CN1C[C@@H](c2ccc(C(F)(F)F)cc2)[C@H](C(=O)Nc2nc[nH]n2)C1=O (racemic)
4. Cc1c(NC(=O)[C@@H]2C(=O)N(C)C[C@H]2c2ccc(C(F)(F)F)cc2)ccnc1Cl (racemic)

result:
1. 70
2. 0
3. 0
4. 70

----------
- System: barnyardgrass (Echinochloa crus-galli)
- testSummary: Test G Pre-Emergence Protocol
- Assay type: in vivo
- setupConditions: Echinochloa crus-galli, pre-emergence, 312 h, 250 g ai/ha, evaluated after 13 days, read-out: Barnyardgrass damage rating (100=total damage to plant; 0=no damage to plant)
quantity: pest or weed control at 250 g/ha (%)
Answers are plain numbers, in %.

CN1C[C@@H](c2ccc(C(F)(F)F)cc2)[C@H](C(=O)Nc2cn[nH]c2)C1=O (racemic) [Compound 1646]	0
CN1C[C@@H](c2ccc(C(F)(F)F)cc2)[C@H](C(=O)Nc2ccc(F)c(Cl)c2F)C1=O (racemic) [Compound 1628]	70
CN1C[C@@H](c2ccc(C(F)(F)F)cc2)[C@H](C(=O)Nc2ccccc2)C1=O (racemic) [Compound 1404]	70
CN1C[C@H](c2cccc(C(F)(F)F)c2)[C@@H](C(=O)Nc2cccnc2F)C1=O (racemic) [Compound 1809]	90

I would be grateful if you could provide pest or weed control at 250 g/ha for each of the following entries.
1. Cc1cc(Cl)ncc1NC(=O)[C@@H]1C(=O)N(C)C[C@H]1c1ccc(C(F)(F)F)cc1 (racemic) [Compound 1578]
2. Cc1c(NC(=O)[C@@H]2C(=O)N(C)C[C@H]2c2ccc(C(F)(F)F)cc2)ccc(F)c1F (racemic) [Compound 1502]

result:
0
80
